Hey, just so you know, these numbers are from the supplement of paper PMC3334620.

# assayed_system: Ylr278c (UniProt Q05854)
# Sequence (Q05854 whole entry): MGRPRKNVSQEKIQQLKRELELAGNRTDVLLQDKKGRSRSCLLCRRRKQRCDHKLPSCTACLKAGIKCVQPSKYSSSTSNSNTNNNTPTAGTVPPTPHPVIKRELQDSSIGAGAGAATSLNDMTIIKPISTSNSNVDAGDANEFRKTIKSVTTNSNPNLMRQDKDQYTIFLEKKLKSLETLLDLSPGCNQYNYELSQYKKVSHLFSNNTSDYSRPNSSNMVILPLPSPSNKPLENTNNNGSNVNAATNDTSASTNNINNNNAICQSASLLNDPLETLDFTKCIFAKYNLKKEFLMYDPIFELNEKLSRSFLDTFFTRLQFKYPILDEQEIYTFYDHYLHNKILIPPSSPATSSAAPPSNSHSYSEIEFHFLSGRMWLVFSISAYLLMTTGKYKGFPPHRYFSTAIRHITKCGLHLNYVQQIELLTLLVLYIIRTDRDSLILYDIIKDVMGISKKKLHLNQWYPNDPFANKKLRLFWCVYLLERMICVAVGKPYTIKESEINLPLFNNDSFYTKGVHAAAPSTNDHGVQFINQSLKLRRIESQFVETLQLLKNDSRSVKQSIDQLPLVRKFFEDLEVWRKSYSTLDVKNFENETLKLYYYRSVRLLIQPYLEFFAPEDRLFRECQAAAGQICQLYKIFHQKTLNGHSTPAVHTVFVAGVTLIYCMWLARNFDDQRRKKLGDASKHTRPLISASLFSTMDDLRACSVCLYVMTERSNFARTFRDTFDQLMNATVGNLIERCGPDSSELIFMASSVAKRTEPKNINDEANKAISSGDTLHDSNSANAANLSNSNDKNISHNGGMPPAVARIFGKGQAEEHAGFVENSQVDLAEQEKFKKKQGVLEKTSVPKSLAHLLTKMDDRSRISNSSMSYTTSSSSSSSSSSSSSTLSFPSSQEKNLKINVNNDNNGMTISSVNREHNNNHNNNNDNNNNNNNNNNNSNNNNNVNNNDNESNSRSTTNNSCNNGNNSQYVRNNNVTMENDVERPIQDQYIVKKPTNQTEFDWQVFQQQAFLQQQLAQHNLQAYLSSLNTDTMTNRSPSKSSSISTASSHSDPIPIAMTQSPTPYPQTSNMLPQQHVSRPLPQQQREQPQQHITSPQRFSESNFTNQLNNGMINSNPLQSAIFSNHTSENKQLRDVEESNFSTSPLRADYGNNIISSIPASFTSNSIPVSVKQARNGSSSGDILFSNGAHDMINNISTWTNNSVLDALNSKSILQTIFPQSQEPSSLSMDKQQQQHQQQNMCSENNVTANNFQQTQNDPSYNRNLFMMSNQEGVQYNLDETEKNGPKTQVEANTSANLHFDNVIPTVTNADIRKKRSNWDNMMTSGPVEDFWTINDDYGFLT
# experiment_summary: PBM E-score (8-mer binding enrichment) (E-score (-0.5 to 0.5)); higher = stronger / more preferred TF binding
# recorded_conditions: protein concentration: 200 nM; construct: GST-DNA-binding domain
Over roughly 33,000 sequences, “E-score (-0.5 to 0.5)” has its median near -0.054; the highest 2% begin near 0.39. The sample as a whole holds a higher share of the highest values than the screen did.
Please go through the items and note down their PBM E-score.
Answers are plain numbers.

1) ATTGTAGG -0.0526

Give PBM E-score for each listed item.
1. AACCGTGA
2. GTTCAGGA
3. CTTCGGAA
4. CCCACTGA
5. CGACTGAC

Output:
[-0.0334, -0.0137, 0.419, -0.155, -0.171]
